// cross-study collection: IC50 for Histone deacetylase 8 (Homo sapiens)
Target: Histone deacetylase 8 (Homo sapiens)
Sequence (Q9BY41 whole entry): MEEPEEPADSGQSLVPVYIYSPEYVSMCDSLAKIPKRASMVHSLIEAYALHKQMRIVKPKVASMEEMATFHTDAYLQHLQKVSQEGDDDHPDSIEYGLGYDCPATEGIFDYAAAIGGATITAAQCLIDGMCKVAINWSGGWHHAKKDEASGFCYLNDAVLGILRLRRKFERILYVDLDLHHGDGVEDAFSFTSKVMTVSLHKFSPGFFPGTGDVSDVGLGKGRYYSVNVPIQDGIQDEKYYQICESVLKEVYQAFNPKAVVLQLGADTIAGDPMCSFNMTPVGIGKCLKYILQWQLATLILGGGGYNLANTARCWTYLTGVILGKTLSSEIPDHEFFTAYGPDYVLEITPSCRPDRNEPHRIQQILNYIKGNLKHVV
Numbers only, in µM.

Consider the worked cases shown below.
# Smiles notation, Reported property, Value observed
measured = [
    ("CC(C)(C)OC(=O)N1Cc2cc(OCC(=O)NO)ccc2C[C@H]1C(=O)Nc1ccc(F)cc1", "IC50", 2.56),
    ("O=C(NO)c1cccc(S(=O)(=O)N[C@H](C(=O)NCc2ccccc2)c2ccccc2)c1", "IC50", 9.2),
]

State recorded IC50 for all listed compounds.
1. O=C(COc1ccc2c(c1)CN[C@H](C(=O)Nc1cccc3ccccc13)C2)NO
2. Cc1ccc(-c2cc(C(F)(F)F)nn2-c2ccc(S(=O)(=O)NCCCCCCCC(=O)NO)cc2)cc1
3. COc1cc2ncnc(Nc3ccc(Br)cc3)c2cc1OCCCCCCC(=O)NO
4. O=CN(O)CCCCCCCC(=O)Nc1cccc2ccccc12

A)
1.06
0.989
0.0046
0.65
